Values were extracted from patent US7655669B2.

Test system: c-Abl protein tyrosine kinase (Homo sapiens, UniProt P00519)
Sequence (P00519 242-493 limits assumed): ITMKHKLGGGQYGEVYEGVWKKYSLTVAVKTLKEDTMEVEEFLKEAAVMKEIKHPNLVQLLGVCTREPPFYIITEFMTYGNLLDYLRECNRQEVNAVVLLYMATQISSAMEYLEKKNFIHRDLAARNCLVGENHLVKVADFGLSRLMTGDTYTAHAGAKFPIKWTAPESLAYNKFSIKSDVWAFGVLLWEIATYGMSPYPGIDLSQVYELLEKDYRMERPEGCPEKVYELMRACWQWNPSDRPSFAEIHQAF
Measurement name: IC50

Here is how some molecules turned out for IC50.
Cc1cn(-c2ccc(C(=O)Nc3ccc(C)c(Nc4nccc(-c5cccnc5)n4)c3)cc2C(F)(F)F)c(C)n1 = 0.005 to 0.02 µM
Cc1ccc(NC(=O)c2ccc(N3CCOCC3)c(C(F)(F)F)c2)cc1Nc1nccc(-c2cccnc2)n1 = 0.04 to 0.1 µM

Continue with the molecule presented below.
Asked: In one line, give reported IC50 of the entry Cc1ccc(NC(=O)c2ccc(N3CCCC3)c(C(F)(F)F)c2)cc1Nc1nccc(-c2cccnc2)n1 .
Given back: 0.01 to 0.06 µM

----------
Overview of recorded IC50 for various compounds
Test system: p210 Bcr-Abl (Homo sapiens)
Construct: expressed in transfected cells; host or cells: murine myeloid progenitor cell line 32Dcl3 (32D-bcr/abl), from J. Griffin; the other entry of the earlier key: BCR (P11274, Breakpoint cluster region protein)
Measurement description: Test for activity against Bcr-Abl (Bcr-Abl phosphorylation ELISA in 32D-bcr/abl cells)
Type: cell-based
Condition parameters: expressed as a range within which individual IC50 measurements fall

Cc1cn(-c2cc(C(=O)Nc3ccc(C)c(Nc4nccc(-c5cccnc5)n4)c3)cc(C(F)(F)F)c2)cn1 [Example 12] = 10 to 50 nM

Asked: In one line, give reported IC50 of the entry Cc1ccc(NC(=O)c2ccc(N3CCN(C)CC3)c(C(F)(F)F)c2)cc1Nc1nccc(-c2cccnc2)n1 [Example 5] .
Given back: 30 to 100 nM

Asked: In one line, give reported IC50 of the entry Cc1ccc(NC(=O)c2ccc(N3CCCCC3)c(C(F)(F)F)c2)cc1Nc1nccc(-c2cccnc2)n1 [Example 4] .
Given back: 80 to 200 nM

Asked: In one line, give reported IC50 of the entry Cc1ccc(NC(=O)c2cc(N3CCN(C)CC3)cc(C(F)(F)F)c2)cc1Nc1nccc(-c2cccnc2)n1 [Example 14] .
Given back: 30 to 180 nM

----------
Test system: c-Abl protein tyrosine kinase (Homo sapiens, UniProt P00519)
Sequence (P00519 242-493 limits assumed): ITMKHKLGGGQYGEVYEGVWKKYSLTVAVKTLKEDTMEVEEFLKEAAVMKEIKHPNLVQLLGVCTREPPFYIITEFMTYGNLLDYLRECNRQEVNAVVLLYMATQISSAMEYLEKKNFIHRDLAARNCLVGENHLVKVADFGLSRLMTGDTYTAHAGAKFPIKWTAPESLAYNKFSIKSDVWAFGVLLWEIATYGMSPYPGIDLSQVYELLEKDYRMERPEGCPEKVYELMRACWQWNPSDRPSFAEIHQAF
Measurement name: IC50

Here is how some compounds turned out for IC50.
Cc1ccc(NC(=O)c2ccc(-n3ccnc3C)c(C(F)(F)F)c2)cc1Nc1nccc(-c2cccnc2)n1 [Example 7] = 5 to 20 nM
Cc1ccc(NC(=O)c2cc(N3CCOCC3)cc(C(F)(F)F)c2)cc1Nc1nccc(-c2cccnc2)n1 [Example 13] = 5 to 20 nM
Cc1ccc(NC(=O)c2ccc(-n3ccnc3)c(C(F)(F)F)c2)cc1Nc1nccc(-c2cccnc2)n1 [Example 6] = 5 to 20 nM
CCN(CC)c1ccc(C(=O)Nc2ccc(C)c(Nc3nccc(-c4cccnc4)n3)c2)cc1C(F)(F)F [Example 1] = 50 to 100 nM
Cc1ccc(NC(=O)c2ccc(N(C)CCN(C)C)c(C(F)(F)F)c2)cc1Nc1nccc(-c2cccnc2)n1 [Example 15] = 5 to 20 nM

Asked: In one line, give reported IC50 of the entry Cc1ccc(NC(=O)c2ccc(N3CCN(C)CC3)c(C(F)(F)F)c2)cc1Nc1nccc(-c2cccnc2)n1 [Example 5] .
Given back: 5 to 50 nM

Asked: In one line, give reported IC50 of the entry Cc1ccc(NC(=O)c2ccc(N3CCCCC3)c(C(F)(F)F)c2)cc1Nc1nccc(-c2cccnc2)n1 [Example 4] .
Given back: 60 to 110 nM
